Quick list: GR90 CYPIR per entry.
- System: Direct Seeded Rice and weed species
- assay.notes: Postemergence herbicidal activity in direct seeded rice, visual rating after 20-22 days and probit GR20/GR50/GR80/GR90 (Table 14)
- Type: in vivo
- experimental.context: CYPIR (Cyperus iria); probit analysis, dose for 90 percent growth reduction
Note: unit g ai/ha is implicit; provide only the numeric part.

>  <sample.smiles>
COc1c(N)nc(-c2ccc3c(c2F)OC(F)(F)O3)nc1C(=O)O

>  <assay.readout>
GR90 CYPIR

>  <readout.units>
g ai/ha

>  <measured.number>
19

$$$$

Determine its reported GR90 CYPIR: `Nc1cc(-c2ccc3c(c2F)OC(F)(F)O3)nc(C(=O)O)c1Cl` 0.0001

State its GR90 CYPIR for this compound: `Nc1cc(-c2cc3c(cc2F)OC(F)(F)O3)nc(C(=O)O)c1Cl` 6

Query GR90 CYPIR for `COC(=O)c1nc(-c2ccc3c(c2F)OC(F)(F)O3)c(F)c(N)c1Cl` 13

Entry `COc1c(C(=O)O)nc(-c2ccc3c(c2)OC(F)(F)O3)c(F)c1N` needs its GR90 CYPIR filled in; supply it. 9

Read off the recorded GR90 CYPIR for `COC(=O)c1nc(-c2ccc3c(c2F)OC(F)(F)O3)cc(N)c1Cl` 46

State its GR90 CYPIR for this compound: `Nc1c(F)c(-c2ccc3c(c2F)OC(F)(F)O3)nc(C(=O)O)c1Cl` 7

* * *

pest or weed control at 35 g/ha values for the compounds below.
- Test system: Key Grass and Sedge Weeds as well as Grass Crops
- assay.notes: Post-Emergent Test II: postemergent herbicidal activity, visual rating after 14 d (Table 8)
- Format: in vivo
- experimental.context: post-emergence, 336 h, giant foxtail (Setaria faberi), 35 g ai/ha, read-out: Visual Growth Reduction (%) 14 Days After Application SETFA

Example entries and their recorded answers appear below.
>  <compound>
COC(=O)c1nc(-c2cc3c(cc2Cl)OC(F)(F)O3)c(F)c(N)c1Cl [Compound 12]

>  <pest or weed control at 35 g/ha>
0 to 29%

$$$$
>  <compound>
Nc1c(F)c(-c2cccc3c2OCO3)nc(C(=O)O)c1Cl [Compound 72]

>  <pest or weed control at 35 g/ha>
0 to 29%

$$$$
>  <compound>
COC(=O)c1nc(-c2cc3c(cc2F)OCO3)c(F)c(N)c1OC [Compound 26]

>  <pest or weed control at 35 g/ha>
0 to 29%

$$$$

Give reported pest or weed control at 35 g/ha value for COC(=O)c1nc(-c2ccc3c(c2F)OC(F)(F)O3)cc(N)c1Cl [Compound 37] 60 to 74%

Please report the measured pest or weed control at 35 g/ha for Nc1c(Cl)c(C(=O)O)nc(-c2cc3c(cc2F)OC(F)(F)O3)c1Cl [Compound 3] 0 to 29%

Specify reported pest or weed control at 35 g/ha for the compound shown: COC(=O)c1nc(-c2ccc3c(c2Cl)OC(F)(F)O3)cc(N)c1Cl [Compound 33] 0 to 29%

// Input: COC(=O)c1nc(-c2ccc(Cl)c3c2OC(F)(F)O3)c(Cl)c(N)c1Cl [Compound 70] . Output its pest or weed control at 35 g/ha only. 0 to 29%

Input Nc1c(F)c(-c2cc(F)c3c(c2)OC(F)(F)O3)nc(C(=O)O)c1Cl [Compound 18] , output reported pest or weed control at 35 g/ha. 45 to 59%

Supply pest or weed control at 35 g/ha value. Item: CC1(C)Oc2ccc(-c3nc(C(=O)O)c(Cl)c(N)c3F)cc2O1 [Compound 19] 0 to 29%

* * *

- Tested on: Key Grass and Sedge Weeds as well as Grass Crops
- assay.notes: Post-Emergent Test II: postemergent herbicidal activity, visual rating after 14 d (Table 8)
- Assay type: in vivo
- experimental.context: post-emergence, 336 h, maize, corn (Zea mays), 140 g ai/ha, read-out: Visual Growth Reduction (%) 14 Days After Application, ZEAMX
Measured pest or weed control at 140 g/ha of individual entries

>  <molecule>
Nc1cc(-c2ccc(F)c3c2OC(F)(F)O3)nc(C(=O)O)c1Cl [Compound 89]

>  <pest or weed control at 140 g/ha>
0 to 29%

$$$$
>  <molecule>
COC(=O)c1nc(-c2ccc3c(c2)CCN3C)c(F)c(N)c1Cl [Compound 107]

>  <pest or weed control at 140 g/ha>
0 to 29%

$$$$
>  <molecule>
Nc1c(F)c(-c2ccc3c(c2)OCC3)nc(C(=O)O)c1Cl [Compound 101]

>  <pest or weed control at 140 g/ha>
0 to 29%

$$$$

Name the recorded pest or weed control at 140 g/ha of the item COC(=O)c1nc(-c2ccc(Cl)c3c2OC(F)(F)O3)cc(N)c1Cl [Compound 86] in your answer. 95 to 100%

Assign pest or weed control at 140 g/ha to the following record: COC(=O)c1nc(-c2ccc3c(c2F)OC(F)(F)C3(F)F)cc(N)c1Cl [Compound 106] 0 to 29%

Please give measured pest or weed control at 140 g/ha of the following entry: Nc1cc(-c2c(F)ccc3c2OC(F)(F)O3)nc(C(=O)O)c1Cl [Compound 91] 0 to 29%

Give the reported value of pest or weed control at 140 g/ha for this record: COC(=O)c1nc(-c2ccc3c(c2)OCC3)c(F)c(N)c1Cl [Compound 100] 95 to 100%

Please report the measured pest or weed control at 140 g/ha for COC(=O)c1nc(-c2cccc3c2OCO3)nc(N)c1OC [Compound 98] 0 to 29%

* * *

# pest or weed control at 70 g/ha per record follows
- System: Key Grass and Sedge Weeds as well as Grass Crops
- assay.notes: Post-Emergent Test II: postemergent herbicidal activity, visual rating after 14 d (Table 8)
- Assay type: in vivo
- experimental.context: post-emergence, 336 h, yellow nutsedge (Cyperus esculentus), 70 g ai/ha, read-out: Visual Growth Reduction (%) 14 Days After Application CYPES

Reference set (3 entries):
>  <sample.smiles>
COC(=O)c1nc(-c2ccc3c(c2)OC(F)(F)O3)nc(N)c1OC

>  <result>
95 to 100%

$$$$
>  <sample.smiles>
COC(=O)c1nc(-c2ccc(Cl)c3c2OC(F)(F)O3)c(F)c(N)c1Cl

>  <result>
0 to 29%

$$$$
>  <sample.smiles>
COC(=O)c1nc(-c2cc3c(cc2F)OC(F)(F)O3)nc(N)c1Cl

>  <result>
45 to 59%

$$$$

Next, consider the following compound.
Give a short answer stating reported pest or weed control at 70 g/ha for `CC1(C)Oc2ccc(-c3nc(C(=O)O)c(Cl)c(N)c3F)cc2O1` . 95 to 100%

* * *

# pest or weed control at 140 g/ha values compiled below
- Test system: Key Grass and Sedge Weeds as well as Grass Crops
- assay.notes: Post-Emergent Test II: postemergent herbicidal activity, visual rating after 14 d (Table 8)
- Assay type: in vivo
- experimental.context: post-emergence, 336 h, giant foxtail (Setaria faberi), 140 g ai/ha, read-out: Visual Growth Reduction (%) 14 Days After Application SETFA

>  <compound>
Nc1nc(-c2cc3c(cc2F)OC(F)(F)O3)nc(C(=O)O)c1Cl [Compound 57]

>  <target>
Key Grass and Sedge Weeds as well as Grass Crops

>  <result>
45 to 59%

$$$$

For CC1(C)Oc2ccc(-c3nc(C(=O)O)c(Cl)c(N)c3F)cc2O1 [Compound 19] , write its pest or weed control at 140 g/ha. 0 to 29%

Indicate its recorded pest or weed control at 140 g/ha; the compound in question is COC(=O)c1nc(-c2ccc3c(c2F)OC(F)(F)O3)nc(N)c1Cl [Compound 58] 45 to 59%

Determine its reported pest or weed control at 140 g/ha: COc1c(C(=O)O)nc(-c2ccc3c(c2)OC(F)(F)O3)c(F)c1N [Compound 25] 60 to 74%

Supply pest or weed control at 140 g/ha value. Item: Nc1cc(-c2cc3c(cc2F)OC(F)(F)O3)nc(C(=O)O)c1Cl [Compound 42] 75 to 84%

Supply reported pest or weed control at 140 g/ha belonging to this compound: COC(=O)c1nc(-c2cc3c(cc2F)OCO3)cc(N)c1Cl [Compound 45] 85 to 94%

* * *

- Test system: Key Grass and Sedge Weeds as well as Grass Crops
- assay.notes: Post-Emergent Test II: postemergent herbicidal activity, visual rating after 14 d (Table 8)
- Assay type: in vivo
- experimental.context: post-emergence, 336 h, giant foxtail (Setaria faberi), 140 g ai/ha, read-out: Visual Growth Reduction (%) 14 Days After Application SETFA
Reported pest or weed control at 140 g/ha values for the following compounds.

Completed entries (count: 6):
>  <compound>
COC(=O)c1nc(-c2ccc3c(c2)OC(F)(F)O3)nc(N)c1Cl

>  <pest or weed control at 140 g/ha>
75 to 84%

$$$$
>  <compound>
COc1c(N)nc(-c2cc3c(cc2F)OC(F)(F)O3)nc1C(=O)O

>  <pest or weed control at 140 g/ha>
60 to 74%

$$$$
>  <compound>
Nc1c(F)c(-c2cc3c(cc2F)OC(F)(F)O3)nc(C(=O)O)c1Cl

>  <pest or weed control at 140 g/ha>
85 to 94%

$$$$
>  <compound>
COC(=O)c1nc(-c2ccc3c(c2)OC(F)(F)O3)c(C)c(N)c1Cl

>  <pest or weed control at 140 g/ha>
0 to 29%

$$$$
>  <compound>
Cc1c(-c2cc(N)c(Cl)c(C(=O)O)n2)ccc2c1OC(F)(F)O2

>  <pest or weed control at 140 g/ha>
45 to 59%

$$$$
>  <compound>
C=Cc1c(C(=O)O)nc(-c2cc3c(cc2F)OC(F)(F)O3)c(F)c1N

>  <pest or weed control at 140 g/ha>
60 to 74%

$$$$

Answer with the recorded pest or weed control at 140 g/ha of `Nc1c(F)c(-c2cc(F)c3c(c2)OC(F)(F)O3)nc(C(=O)O)c1Cl` only. 60 to 74%

Let me know recorded pest or weed control at 140 g/ha for `Nc1c(F)c(-c2ccc(Br)c3c2OC(F)(F)O3)nc(C(=O)O)c1Cl` , thanks. 0 to 29%

Please list pest or weed control at 140 g/ha recorded for the compound `Nc1c(Cl)c(C(=O)O)nc(-c2ccc3c(c2F)OC(F)(F)O3)c1Cl` 0 to 29%

Supply measured pest or weed control at 140 g/ha of `COC(=O)c1nc(-c2c(F)cc3c(c2F)OCO3)cc(N)c1Cl` in your reply. 75 to 84%
